# Tested on: HOP-92 NSCLC
# ASSAY OVERVIEW: NCI-60 one-dose screen, 48 h (100 = growth as untreated, 0 = no growth, -100 = all killed)
# PROTOCOL CONDITIONS: 10 µM
This is part of a sample that, as a whole, favours compounds with a hit. Of some 83,000 tested, about 20% had one in any assay.
MEASURED QUANTITY: growth (%)
Numbers only, in %.

CC1OC(Oc2c(-c3ccc(O)c(O)c3)oc3cc(O)cc(O)c3c2=O)C(O)C(O)C1O (stereo unspecified) :: 88.6
CC(=O)C1CCCCC1 :: 77.5
CO[C@H]1C[C@@H]2CC[C@@H](C)[C@@](O)(O2)C(=O)C(=O)N2CCCC[C@H]2C(=O)O[C@H]([C@H](C)C[C@@H]2CC[C@@H](O)[C@H](OC)C2)CC(=O)[C@H](C)C=C(C)[C@@H](O)[C@@H](OC)C(=O)[C@H](C)C[C@H](C)/C=C/C=C/C=C1C :: 30.7
O=C(CS)Nc1ccc2ccccc2c1 :: 101
COc1cc(OC)c2ccc(=O)oc2c1 :: 98.3

Count: 5. Required value per item: growth.
1. CCS(=O)(=O)c1cc(=O)[nH]c(=O)[nH]1
2. C#CCSc1nnnn1-c1ccc(Br)c(C)c1
3. C=CCNc1ccccc1
4. O=C1Cc2ccccc2C(=O)O1
5. O=P(O)(O)OCC(O)CO (stereo unspecified)

Completion:
1: 162; 2: 69.9; 3: 88.5; 4: 92; 5: 96.1

# batch size: 7; output growth per entry
1. COc1cc(/C=C/C(=O)c2ccccc2)cc(OC)c1OC
2. c1csc(-c2cc(-c3cc(-c4cccs4)[nH]n3)n[nH]2)c1
3. COC1=CC(=O)c2nc(Cl)ccc2C1=O
4. NC(=S)NN=C1CCCC1
5. COc1cc(C(=O)N/N=C/c2cccc([N+](=O)[O-])c2)cc(OC)c1OC
6. Cc1cccc(C(=O)N(C(C)C)C(C)C)c1
7. O=[N+]([O-])c1ccc(CO)cc1

Completion:
76
93.6
-18.4
82.1
70.7
79.6
110

Would you mind giving growth for every compound in the list below?
1. CCS(=O)(=O)CCCl
2. CC1Cc2ccccc2O1 (stereo unspecified)
3. Cc1cc(Cc2cc(C)c(N)cc2N)c(N)cc1N
4. Nc1ccc(C(=O)c2ccc(N)c(Br)c2)cc1Br
5. CCCCCC(C)(CC(=O)O)CC(=O)O
6. O=C(Nc1cc(-c2ccccc2)[nH]n1)c1ccc(Cl)cc1
7. FC(F)(F)c1ccc2c(c1)N(CCCN1CCN(C3CC3)CC1)c1ccccc1S2

Completion:
1. 92.3
2. 109
3. 91.4
4. 34.7
5. 119
6. 81.4
7. 51.1

Fill in growth for each of the 2 compounds listed.
1. N#CCCc1ccc(O)cc1
2. CC(C)(N)COS(=O)(=O)O

Completion:
108
87.6
